# System: CYP3A4 (Homo sapiens, UniProt P08684)
# Sequence (P08684 whole entry): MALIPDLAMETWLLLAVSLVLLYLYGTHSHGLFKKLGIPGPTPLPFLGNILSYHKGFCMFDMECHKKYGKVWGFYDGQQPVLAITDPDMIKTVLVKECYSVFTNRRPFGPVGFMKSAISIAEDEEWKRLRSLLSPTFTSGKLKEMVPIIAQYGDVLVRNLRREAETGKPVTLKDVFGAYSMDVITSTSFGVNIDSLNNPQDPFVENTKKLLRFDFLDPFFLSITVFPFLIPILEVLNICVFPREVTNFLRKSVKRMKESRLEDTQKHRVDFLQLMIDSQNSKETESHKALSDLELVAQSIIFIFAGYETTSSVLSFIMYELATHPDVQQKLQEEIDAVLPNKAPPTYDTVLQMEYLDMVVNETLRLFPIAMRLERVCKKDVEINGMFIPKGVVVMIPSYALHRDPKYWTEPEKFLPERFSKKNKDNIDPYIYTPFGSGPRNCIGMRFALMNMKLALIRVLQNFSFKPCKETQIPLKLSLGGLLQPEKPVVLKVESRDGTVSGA
# Method summary: Inhibition of CYP3A4-catalysed felodipine metabolism in human liver microsomes (HLM)
# Experimental setup: IC50 (mg/mL), HLM; felodipine at its Km as substrate
# Procedure: G6PDH (40 U/mL) was prepared in 5 mM sodium citrate solution and stored at −20° C. until use. […] The preparation of NRS was completed right before use. […] Supernatants were filtered through […] and analysed by the UPLC method developed in order to quantify the extent of felodipine metabolism. The rate of metabolism, determined as the rate of disappearance of substrate, was profiled against the substrate concentration to determine the enzyme kinetic parameters. […]
Endpoint label: IC50 (µM)
Reply numerically in µM, unit not repeated.

Q: Entry `C[C@@H]1O[C@@H](O[C@H]2[C@H](Oc3cc(O)c4c(c3)O[C@H](c3ccc(O)cc3)CC4=O)O[C@H](CO)[C@@H](O)[C@@H]2O)[C@H](O)[C@H](O)[C@H]1O` : reported IC50 = ?
Result: 178
